- Test system: passive cutaneous anaphylaxis (PCA) reaction
- assay-name: Passive cutaneous anaphylaxis (PCA) test
- Assay type: in vivo, Sprague-Dowley male rats
- measurement-conditions: 0.5 h; rat PCA; 20 mg/kg in 0.5% CMC, oral, 30 minutes before antigen challenge
- Protocol: 1 mg of egg albumin dissolved in 0.2 ml of saline was intramuscularly administered to each of Sprague-Dawley male rats weighing 300 to 350 g (Charles River Japan Inc.), and then 1 ml of a suspension of sterilized Bordetella pertussis (2×10^10 cells) in saline was administered intraperitoneally to the rats. […] The inhibitory activity on the PCA reaction in the treated group was calculated by the following formula: [formula] wherein: a represents a mean value of blue spot area in the control group. […]
Form field: inhibition in vivo at 20 mg/kg (one value per entry).
Could you kindly put the unit after your number?

Some solved cases for reference:
> print(dat)
                                   compound                  endpoint.label  meas.value
1  O=c1c2[nH]nnc2nc2sc(-c3ccc4c(c3)OCO4)nn12  inhibition in vivo at 20 mg/kg         36%
2  O=c1c2[nH]nnc2nc2sc(-c3cc4c(s3)CCC4)nn12  inhibition in vivo at 20 mg/kg         47%
3        O=c1c2[nH]nnc2nc2sc(Cc3ccccc3)nn12  inhibition in vivo at 20 mg/kg         48%
4         O=c1c2[nH]nnc2nc2sc(-c3cccs3)nn12  inhibition in vivo at 20 mg/kg         31%
5  CC1CCc2sc(-c3nn4c(=O)c5[nH]nnc5nc4s3)cc2C1 (stereo not shown)  inhibition in vivo at 20 mg/kg         40%

Enquiry: Please give the measured inhibition in vivo at 20 mg/kg for this compound: O=c1c2[nH]nnc2nc2sc(COc3ccccc3)nn12
Return: 33%

Enquiry: Please give the measured inhibition in vivo at 20 mg/kg for this compound: O=c1c2[nH]nnc2nc2sc(-c3ccc(Cl)o3)nn12
Return: 35%

Enquiry: Please give the measured inhibition in vivo at 20 mg/kg for this compound: O=c1c2[nH]nnc2nc2sc(-c3ccsc3)nn12
Return: 45%

Enquiry: Please give the measured inhibition in vivo at 20 mg/kg for this compound: O=c1c2[nH]nnc2nc2sc(-c3ccccc3)nn12
Return: 38%

Enquiry: Please give the measured inhibition in vivo at 20 mg/kg for this compound: CC(C)(C)c1ccc(OCCc2nn3c(=O)c4[nH]nnc4nc3s2)cc1
Return: 34%

Source of measurements: patent US4652646A
